FYI, the data here is from ChEMBL document CHEMBL5523718.

# assay: MRT in Sprague-Dawley rat at 20 mg/kg, po measured upto 24 hrs by LC-MS/MS analysis
# Assay type: ADME, organism-based
# cond: in vivo
measurementType: MRT
Provide a numeric answer, followed by its unit.

Prompt line: Entry CC(=O)O[C@H]1C(=O)[C@@]2(C)[C@H]([C@H](OC(=O)c3ccccc3)[C@]3(O)C[C@H](OC(=O)[C@H](O)[C@@H](NC(=O)c4ccccc4)c4ccccc4)C(C)=C1C3(C)C)[C@]1(OC(C)=O)CO[C@@H]1C[C@@H]2O [PACLITAXEL] has what MRT?
Response line: 5.37 h

----------
# assay: C0 in CD-1 mouse at 5 mg/kg, iv measured upto 8 hrs by LC-MS/MS analysis
# Assay type: ADME, organism-based
# cond: in vivo
measurementType: C0 at 8 h (ng/mL)
Answers are plain numbers, in ng/mL.

Prompt line: Fill blank: measured C0 at 8 h of the compound COc1cc(NC(=O)c2cc(=O)c3ccccc3o2)c(C(=O)Nc2ccc(C3CCN(Cc4cccc(-n5ccnc5)c4)CC3)cc2)cc1OC is ____.
Response line: 6540

----------
Provide the recorded efflux ratio for the entries that follow.
# assay: Efflux ratio of apparent permeability across basolateral to apical side over apical to basolateral side in human Caco-2 cells
# Type: ADME, cell-based
Answers are plain numbers.

C[C@H]1O[C@@H](O[C@H]2[C@@H](O)C[C@H](O[C@H]3[C@@H](O)C[C@H](O[C@H]4CC[C@@]5(C)[C@H](CC[C@@H]6[C@@H]5C[C@@H](O)[C@]5(C)[C@@H](C7=CC(=O)OC7)CC[C@]65O)C4)O[C@@H]3C)O[C@@H]2C)C[C@H](O)[C@@H]1O | 12.2

Answer for every listed entry: what is its efflux ratio? The entries follow.
1. COc1cc(NC(=O)c2cnc3ccccc3c2)c(C(=O)Nc2ccc(N3CCN(Cc4cccc(-c5cccnc5)c4)CC3)cc2)cc1OC
2. COc1cc(NC(=O)c2cnc3ccccc3c2)c(C(=O)Nc2ccc(C3CCN(Cc4cccc(-n5ccnc5)c4)CC3)cc2)cc1OC
3. COc1cc(NC(=O)c2cnc3ccccc3c2)c(C(=O)Nc2ccc(N3CCN(Cc4cccc(-n5ccnc5)c4)CC3)cc2)cc1OC

Response line:
[1.8, 0.7, 1.6]

----------
Answer each item with its documented IC50.
# assay: Inhibition of MRP1 (unknown origin) ATPase activity
# Parameters: species or system Homo sapiens

COc1cc(NC(=O)c2cc(=O)c3ccccc3o2)c(C(=O)Nc2ccc(C3CCN(Cc4cccc(-n5ccnc5)c4)CC3)cc2)cc1OC | > 10 µM

Prompt line: So what's the measured IC50 for this one? COc1cc2c(cc1OC)CN(CCc1ccc(NC(=O)c3cc(OC)c(OC)cc3NC(=O)c3cnc4ccccc4c3)cc1)CC2
Response line: > 10 µM

----------
Kindly state IC50 for each of the entries shown.
# studyTarget: ATP-dependent translocase ABCB1 (Homo sapiens)
# Sequence (P08183 whole entry): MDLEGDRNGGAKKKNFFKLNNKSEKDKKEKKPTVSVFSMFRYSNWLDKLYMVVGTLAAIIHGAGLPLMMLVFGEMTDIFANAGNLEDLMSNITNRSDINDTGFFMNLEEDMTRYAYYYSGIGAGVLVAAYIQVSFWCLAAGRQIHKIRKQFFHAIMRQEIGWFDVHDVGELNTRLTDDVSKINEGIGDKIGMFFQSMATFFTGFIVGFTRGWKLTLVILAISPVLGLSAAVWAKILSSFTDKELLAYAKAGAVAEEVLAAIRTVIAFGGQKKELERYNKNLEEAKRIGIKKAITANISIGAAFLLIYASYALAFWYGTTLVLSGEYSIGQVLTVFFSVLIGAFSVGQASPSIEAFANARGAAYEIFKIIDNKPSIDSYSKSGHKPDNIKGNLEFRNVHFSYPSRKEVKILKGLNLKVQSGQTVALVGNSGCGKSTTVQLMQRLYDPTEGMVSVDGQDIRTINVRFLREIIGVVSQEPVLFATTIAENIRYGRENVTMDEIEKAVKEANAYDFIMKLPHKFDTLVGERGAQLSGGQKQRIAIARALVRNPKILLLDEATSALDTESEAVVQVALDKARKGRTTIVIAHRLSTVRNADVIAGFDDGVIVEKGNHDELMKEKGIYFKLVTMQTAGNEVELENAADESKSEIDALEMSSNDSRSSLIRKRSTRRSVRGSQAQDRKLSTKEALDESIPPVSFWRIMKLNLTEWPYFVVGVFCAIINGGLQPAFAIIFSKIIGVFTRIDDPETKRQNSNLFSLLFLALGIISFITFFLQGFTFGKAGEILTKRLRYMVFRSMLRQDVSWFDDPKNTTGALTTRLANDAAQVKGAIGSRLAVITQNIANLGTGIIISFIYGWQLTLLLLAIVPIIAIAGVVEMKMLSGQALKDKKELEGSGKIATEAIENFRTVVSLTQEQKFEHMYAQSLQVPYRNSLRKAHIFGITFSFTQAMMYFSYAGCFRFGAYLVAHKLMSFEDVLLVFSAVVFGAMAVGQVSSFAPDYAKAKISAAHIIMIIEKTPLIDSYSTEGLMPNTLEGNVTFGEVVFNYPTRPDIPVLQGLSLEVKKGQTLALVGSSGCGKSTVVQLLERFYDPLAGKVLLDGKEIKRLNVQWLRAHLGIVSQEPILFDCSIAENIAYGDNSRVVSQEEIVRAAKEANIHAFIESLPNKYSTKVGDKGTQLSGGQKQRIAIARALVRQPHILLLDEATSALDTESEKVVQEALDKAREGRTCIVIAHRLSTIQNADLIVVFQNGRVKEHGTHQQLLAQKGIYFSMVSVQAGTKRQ
# assay: Inhibition of P-gp (unknown origin) ATPase activity
Answers are plain numbers, in nM.

COc1cc(NC(=O)c2cc(=O)c3ccccc3o2)c(C(=O)Nc2ccc(C3CCN(Cc4cccc(-n5ccnc5)c4)CC3)cc2)cc1OC | 21

Consider the additional compound presented here.
Prompt line: What value of IC50 has been recorded for this entry: COc1cc2c(cc1OC)CN(CCc1ccc(NC(=O)c3cc(OC)c(OC)cc3NC(=O)c3cnc4ccccc4c3)cc1)CC2
Response line: 35
